# credit: the RNAGym collection of RNA variant scans (doi:10.1126/science.aae0568)

B1: tRNA (parent)
chain: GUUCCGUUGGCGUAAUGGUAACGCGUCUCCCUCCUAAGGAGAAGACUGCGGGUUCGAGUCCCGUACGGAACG

Variants of: B1
PROTOCOL_TEXT: yeast fitness relative to wild type (ratio to wild type); higher = fitter; tRNA-Arg(CCU), competitive growth, 37 C, YPD
This sample holds only a part of the variants without activity.
PROPERTY_MEASURED: yeast fitness

Some entries whose results are on file:
| SEQUENCE_TEXT | yeast fitness |
| --- | --- |
| GUUCCGUUGGCGUAAUGGUAACGCGUCUCCCUCCUAAGGAGCAGACUGCAGGUUCGAGUCCCGAACGGAACG [A42C G50A U64A] | ≤ 0.5 |
| GUUCCGUUGGCGUAAUGGUAACGCGUCUCGCUCCUAAGGAGAAGACUGCGGGUUCGAGUCCGGUACGGAACG [C30G C62G] | 0.551 |
| GUUCCGUCGGCGUAAUGGUAACGCGUUUCCCUCCUAAGGAGUAGACUGCGGGUUCGAGUCCCGUACGGAACG [U8C C27U A42U] | 0.552 |
| GUUCCGUUGGCGUAAUGGUAACGUGUCUCCAUAUUAAGGAGAAGAAUGCGGGUUCGAGUCCCGUACGGCACG [C24U C31A C33A C34U C46A A69C] | 0.546 |
| GCUCCGUUGGCGUAAUGGUAAGGCGUCUCCCUCCUAAGGAGAAGACUGCGCGUUCGAGUCCCGUACGGAGCG [U2C C22G G51C A70G] | ≤ 0.5 |

Please state yeast fitness for every variant in the list that follows.
1. GUUCCGUUGGCGUAAUGGUAAGGCGUCUCCCUCCUAAGCAGAAGACUGCGGGUUCGAGGCCCGUAUGGAACG [C22G G39C U59G C66U]
2. GUCCCGUUGGCGUAAUGGUAAGGCGUCUCCCUCCUAAGGAGAAGACUGCGGGUUCGAGUCCCGUACUGAACG [U3C C22G G67U]
3. GUUCCGUGGGCGUAAUGGUAACGCGUCUCCGUCCUAAGGACAAGACUGCCGGUUCGAGUUCCGUACGGCACG [U8G C31G G41C G50C C60U A69C]
4. GUUCCGUUGGCGAAAUGGUAAGGCCUUUCGCUCCUAAGGAGAAGACUGCGGGUUCGAGUCCCGUACGGAACG [U13A C22G G25C C27U C30G]
5. GUUCCGUUGGCGUAAUGGUAACGCGUUACCCACUUCAGGAGAAGACUGCGGGUUAGAGUCCCGUACGGAACG [C27U U28A U32A C34U A36C C55A]
6. GUUCCGUUGGCGUAAUGGUAGCGCGUCUCCCUCCUAAGGAGAAGACUGCCGCUUCGAGUCCCGUACGGAACG [A21G G50C G52C]

1. 0.504
2. 0.538
3. ≤ 0.5
4. ≤ 0.5
5. 0.543
6. ≤ 0.5

Please state yeast fitness for every variant in the list that follows.
1. GUUCCAUUGGCGUAAAGGUAACGCGUCUCCCUCCUCGGGAGAAGACUGCGGGUUCCAGUCCCGUACGGAACG [G6A U16A A36C A37G G56C]
2. GGUCCGUUGGCGUAAUGCUAACGCGACUCCCUUCUAAGGAGAAGAUUGCGGGUUCGCGUCCCGUACGGAACG [U2G G18C U26A C33U C46U A57C]
3. GUUCAGUUGGCCUAAUGGUAACGCGUCUCCCUCUUAAGGAGAAGACUGCGGGUUCGAGUCCCGUACGGAACG [C5A G12C C34U]
4. GUUCCGUUGGCGUAAUGGUAACGAGUCUCCCUCCUAAGGAGAAGACUCCGGGUUCGAGUCCCGUACGGAUCG [C24A G48C A70U]
5. GUUCCGUUGGCGUAAUGGUAACGCGACUCCCUCCUAAGGAGGAGACUGCGGGUUCGAGUCCCGUACGGAACG [U26A A42G]
6. GUUCCGUUGGCGUAAUGGUAACGCGUAUCCCUCCCAUGGAGAAGACUGUGGGUUUGAGUGCCGUCCGGAACG [C27A U35C A37U C49U C55U C60G A65C]

1: ≤ 0.5; 2: ≤ 0.5; 3: ≤ 0.5; 4: ≤ 0.5; 5: 0.891; 6: ≤ 0.5

Please state yeast fitness for every variant in the list that follows.
1. GUUCUGUUGGCGUAAUGGCAACGCGUCUCCCUCCUAAGGAGAAGACUGCGGGUUCGAGUCCCGUACCGAUCG [C5U U19C G67C A70U]
2. GUUCCGUUAGCGUAAUGGUAACGGGUCUCCCUCCCAAGGAGAAGACUGUGGGUUCGAGUCGCGUACGGAACG [G9A C24G U35C C49U C61G]

1. ≤ 0.5
2. ≤ 0.5

Please state yeast fitness for every variant in the list that follows.
1. GUUCCGUUGGCGUAAUGGUAACGCCUCUCCGUCGUAAGGAGAAGACUGCGGGUUCGCGUCCCGUACGGAACG [G25C C31G C34G A57C]
2. GUUCCGUUGGCGUAAUGGUAACGAGUCUCUCUCCUAAGGAGAAGGCUGCGGGUUCGAGUCCCGUACGGAACG [C24A C30U A45G]
3. GUCCCGUUGGCGUAGUGGUAACGCGUCUACCUCCUAAGGUGAAGACUGCGGGUUGGAGUCGCGUACGGAACG [U3C A15G C29A A40U C55G C61G]

≤ 0.5
≤ 0.5
≤ 0.5
